B1: Caulobacter ParB omega fusion; a variant is named by its letters at X, in order, B8GW30 (parent)
chain: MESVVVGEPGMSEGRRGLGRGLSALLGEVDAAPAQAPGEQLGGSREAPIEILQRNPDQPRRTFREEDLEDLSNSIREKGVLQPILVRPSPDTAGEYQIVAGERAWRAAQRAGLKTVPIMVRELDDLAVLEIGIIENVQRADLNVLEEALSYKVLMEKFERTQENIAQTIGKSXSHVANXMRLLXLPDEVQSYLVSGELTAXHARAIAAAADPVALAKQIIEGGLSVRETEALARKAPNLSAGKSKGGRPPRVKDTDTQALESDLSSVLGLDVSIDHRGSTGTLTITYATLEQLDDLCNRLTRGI

variants of: B1; assay: one-hybrid fitness for binding NBS DNA (the Noc-binding site; scaled: cognate 1, non-cognate 0); higher = stronger binding; settings: with NBS DNA site
Over roughly 81,000 sequences, “one-hybrid fitness for binding NBS DNA” has its median near -0.1; the highest 2% begin near 0.36. This excerpt belongs to a sample that is enriched for the highest values.
Property name: one-hybrid fitness for binding NBS DNA

Worked examples, 6 variants total:
QHAA :: ≤ 0.2
SHQN :: ≤ 0.2
RQNS :: 0.48
QRNV :: 0.453
QMAA :: 0.339
SFAG :: ≤ 0.2

Please report the recorded one-hybrid fitness for binding NBS DNA for KHQR .
≤ 0.2

Now consider GMQY .
≤ 0.2

Now consider DRLC .
≤ 0.2

Now consider QHYV .
≤ 0.2

Now consider QRRV .
0.574

Now consider YMRR .
≤ 0.2

Now consider QRDV .
≤ 0.2

Now consider LDLK .
≤ 0.2

Now consider KQRR .
0.416
